The following binders are shown together with reported glycan array binding signal (z-score) values.
Biological target: Gal(b1-3)GlcNAc(b1-3)Gal(b1-4)GlcNAc(b1-6)[Gal(b1-3)GlcNAc(b1-3)]Gal(b1-4)Glc
Assay: glycan array binding signal (z-score within array); higher = stronger binding
Conditions: glycan notation: IUPAC condensed, linker removed
Many of the other results were omitted from the sample, so the strongest signals are more common in it than they were.
Quantity Measured: glycan array binding signal (z-score)

binder="Clec2 (Mus musculus), Q9JL99 (protein) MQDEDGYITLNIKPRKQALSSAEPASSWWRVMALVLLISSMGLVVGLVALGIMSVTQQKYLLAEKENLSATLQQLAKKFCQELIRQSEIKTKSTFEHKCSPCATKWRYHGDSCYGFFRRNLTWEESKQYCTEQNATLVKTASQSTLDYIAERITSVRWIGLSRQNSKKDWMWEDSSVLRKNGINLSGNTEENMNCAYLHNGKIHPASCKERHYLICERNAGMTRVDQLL" observed=-0.864
binder="Gal 4 (Canis lupus) (protein) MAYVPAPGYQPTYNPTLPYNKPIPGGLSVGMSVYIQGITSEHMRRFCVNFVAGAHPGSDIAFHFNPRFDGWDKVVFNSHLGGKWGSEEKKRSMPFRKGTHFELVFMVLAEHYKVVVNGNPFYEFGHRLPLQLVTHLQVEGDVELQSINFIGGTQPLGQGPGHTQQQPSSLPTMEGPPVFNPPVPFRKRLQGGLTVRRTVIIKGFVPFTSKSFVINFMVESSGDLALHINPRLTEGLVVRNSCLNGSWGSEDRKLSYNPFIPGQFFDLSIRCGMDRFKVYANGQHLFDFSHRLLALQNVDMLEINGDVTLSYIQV" observed=-0.146
binder="Intelectin-1a (Mus musculus) (protein) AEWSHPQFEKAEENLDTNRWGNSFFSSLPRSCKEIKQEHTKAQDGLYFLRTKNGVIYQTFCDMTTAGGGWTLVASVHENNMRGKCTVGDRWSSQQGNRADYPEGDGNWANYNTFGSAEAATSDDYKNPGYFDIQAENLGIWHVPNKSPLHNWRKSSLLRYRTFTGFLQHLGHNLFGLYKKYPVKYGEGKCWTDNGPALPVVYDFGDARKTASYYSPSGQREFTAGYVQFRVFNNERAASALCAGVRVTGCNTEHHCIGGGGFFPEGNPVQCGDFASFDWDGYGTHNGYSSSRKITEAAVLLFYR" observed=2.74
binder="DrGal9 (Danio rerio) (protein) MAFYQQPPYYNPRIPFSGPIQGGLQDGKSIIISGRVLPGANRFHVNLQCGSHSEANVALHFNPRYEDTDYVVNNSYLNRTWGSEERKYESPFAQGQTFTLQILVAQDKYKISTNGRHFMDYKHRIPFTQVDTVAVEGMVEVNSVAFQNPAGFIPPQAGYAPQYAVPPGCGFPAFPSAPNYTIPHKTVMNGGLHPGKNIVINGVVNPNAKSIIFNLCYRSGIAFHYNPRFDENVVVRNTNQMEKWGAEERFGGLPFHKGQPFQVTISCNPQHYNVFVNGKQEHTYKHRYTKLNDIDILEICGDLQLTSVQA" observed=1.3
binder="Ovorubin (Pomacea canaliculata), J7I2T6 (protein) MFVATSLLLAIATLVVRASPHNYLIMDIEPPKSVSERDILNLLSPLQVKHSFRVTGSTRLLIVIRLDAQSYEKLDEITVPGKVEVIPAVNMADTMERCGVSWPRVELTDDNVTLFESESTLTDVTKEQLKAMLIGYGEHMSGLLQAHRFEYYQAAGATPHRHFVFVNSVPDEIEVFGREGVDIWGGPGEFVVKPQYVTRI" observed=-0.801
binder="GSL-I-B4 (Griffonia simplicifolia) (protein) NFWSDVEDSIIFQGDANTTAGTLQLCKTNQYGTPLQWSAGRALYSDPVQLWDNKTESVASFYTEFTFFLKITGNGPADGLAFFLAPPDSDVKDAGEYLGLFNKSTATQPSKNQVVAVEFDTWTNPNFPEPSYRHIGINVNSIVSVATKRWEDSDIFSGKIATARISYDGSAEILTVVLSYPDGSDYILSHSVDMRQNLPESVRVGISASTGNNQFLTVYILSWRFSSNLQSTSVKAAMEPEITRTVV" observed=-0.187
binder="MFG-E8 (Homo sapiens), Q08431 (protein) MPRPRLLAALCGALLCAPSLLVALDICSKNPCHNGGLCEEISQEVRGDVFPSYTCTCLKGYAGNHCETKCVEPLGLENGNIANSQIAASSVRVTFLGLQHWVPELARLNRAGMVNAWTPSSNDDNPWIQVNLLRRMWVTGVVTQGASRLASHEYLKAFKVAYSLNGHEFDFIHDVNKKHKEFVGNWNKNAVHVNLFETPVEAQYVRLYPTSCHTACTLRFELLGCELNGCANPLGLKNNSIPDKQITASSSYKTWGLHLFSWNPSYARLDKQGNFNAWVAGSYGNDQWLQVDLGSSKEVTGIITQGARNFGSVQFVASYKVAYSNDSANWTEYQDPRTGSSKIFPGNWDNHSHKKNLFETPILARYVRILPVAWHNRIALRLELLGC" observed=2.38
binder="DC-Sign-R (Homo sapiens), Q9H2X3 (protein) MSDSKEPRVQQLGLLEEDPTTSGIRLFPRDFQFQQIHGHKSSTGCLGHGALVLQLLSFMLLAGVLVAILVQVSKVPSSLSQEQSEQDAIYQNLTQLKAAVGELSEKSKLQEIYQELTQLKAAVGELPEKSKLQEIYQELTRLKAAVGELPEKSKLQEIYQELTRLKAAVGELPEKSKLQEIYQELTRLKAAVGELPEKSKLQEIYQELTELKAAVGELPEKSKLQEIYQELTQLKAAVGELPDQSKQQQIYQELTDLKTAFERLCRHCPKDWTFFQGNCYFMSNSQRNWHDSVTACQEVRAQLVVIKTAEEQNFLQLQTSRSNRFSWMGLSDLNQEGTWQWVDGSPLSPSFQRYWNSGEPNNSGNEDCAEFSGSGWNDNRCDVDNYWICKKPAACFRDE" observed=-0.833
binder="AT1G15820(NC) (Arabidopsis thaliana) (protein) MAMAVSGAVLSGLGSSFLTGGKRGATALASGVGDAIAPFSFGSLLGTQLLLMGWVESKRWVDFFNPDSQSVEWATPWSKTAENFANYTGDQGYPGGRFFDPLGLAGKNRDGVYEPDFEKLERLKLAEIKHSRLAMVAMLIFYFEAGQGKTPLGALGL" observed=5.77
binder="Mincle (Homo sapiens), Q9ULY5 (protein) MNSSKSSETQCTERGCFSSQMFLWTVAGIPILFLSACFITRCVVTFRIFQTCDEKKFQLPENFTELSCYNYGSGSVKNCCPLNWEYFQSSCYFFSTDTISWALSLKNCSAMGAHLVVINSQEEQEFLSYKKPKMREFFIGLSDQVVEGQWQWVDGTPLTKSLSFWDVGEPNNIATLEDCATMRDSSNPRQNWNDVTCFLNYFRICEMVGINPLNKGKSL" observed=6.4
